So I've got a bunch of binders here, and I need their KD-WT/KD-mut values.
STUDY SYSTEM: T1, Factor VIIIa (FVIIIa), from recombinant FVIII (Kogenate FS; Bayer healthcare) activated with alpha-thrombin (UniProt P00451 20-2351)
T1 sequence (looked up): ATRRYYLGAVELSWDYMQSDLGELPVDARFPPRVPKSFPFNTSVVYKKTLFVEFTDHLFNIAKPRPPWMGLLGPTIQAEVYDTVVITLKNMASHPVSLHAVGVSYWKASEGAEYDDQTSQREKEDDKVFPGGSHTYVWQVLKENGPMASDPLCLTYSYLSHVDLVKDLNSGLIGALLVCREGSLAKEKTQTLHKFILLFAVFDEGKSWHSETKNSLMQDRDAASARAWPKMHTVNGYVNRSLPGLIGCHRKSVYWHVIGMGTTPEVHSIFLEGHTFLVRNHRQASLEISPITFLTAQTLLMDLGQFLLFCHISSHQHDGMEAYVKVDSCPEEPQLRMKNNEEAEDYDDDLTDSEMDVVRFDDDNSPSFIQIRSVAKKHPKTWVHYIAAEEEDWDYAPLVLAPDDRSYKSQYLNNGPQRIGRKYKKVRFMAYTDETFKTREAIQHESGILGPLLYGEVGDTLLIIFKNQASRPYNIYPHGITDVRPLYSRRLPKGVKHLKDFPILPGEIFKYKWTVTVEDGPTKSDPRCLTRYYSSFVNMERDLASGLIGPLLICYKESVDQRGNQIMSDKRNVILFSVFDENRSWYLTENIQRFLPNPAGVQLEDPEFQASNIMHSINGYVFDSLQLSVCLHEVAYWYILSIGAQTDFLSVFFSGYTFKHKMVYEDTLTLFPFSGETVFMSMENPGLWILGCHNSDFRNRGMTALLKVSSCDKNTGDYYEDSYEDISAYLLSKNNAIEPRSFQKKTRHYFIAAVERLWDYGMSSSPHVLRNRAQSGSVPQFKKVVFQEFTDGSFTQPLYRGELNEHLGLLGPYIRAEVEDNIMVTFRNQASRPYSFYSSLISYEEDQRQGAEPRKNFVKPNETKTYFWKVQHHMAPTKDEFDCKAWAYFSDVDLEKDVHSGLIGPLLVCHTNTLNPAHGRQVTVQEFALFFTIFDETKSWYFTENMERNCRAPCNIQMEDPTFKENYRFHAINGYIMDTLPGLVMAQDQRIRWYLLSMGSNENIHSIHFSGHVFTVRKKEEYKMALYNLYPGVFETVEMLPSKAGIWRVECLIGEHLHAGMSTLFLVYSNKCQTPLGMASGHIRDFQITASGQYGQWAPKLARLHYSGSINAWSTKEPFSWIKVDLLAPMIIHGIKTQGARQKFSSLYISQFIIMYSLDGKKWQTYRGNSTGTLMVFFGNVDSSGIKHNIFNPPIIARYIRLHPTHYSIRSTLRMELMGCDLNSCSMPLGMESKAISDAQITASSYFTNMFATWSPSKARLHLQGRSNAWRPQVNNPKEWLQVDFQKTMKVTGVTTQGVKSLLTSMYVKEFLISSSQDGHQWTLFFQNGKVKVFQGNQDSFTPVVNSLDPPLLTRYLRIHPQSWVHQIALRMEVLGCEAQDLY
METHOD: ratio of KD-app of Catalyst Biosciences WT FIXa to KD-app of the variant, same Xase assay
Answers are plain numbers, in fold.

BINDER	VALUE KIND	RECORDED NUMBER
FIXa variant Y155F/K247N/N249S/R318Y/R338E/E410N (enzyme) light: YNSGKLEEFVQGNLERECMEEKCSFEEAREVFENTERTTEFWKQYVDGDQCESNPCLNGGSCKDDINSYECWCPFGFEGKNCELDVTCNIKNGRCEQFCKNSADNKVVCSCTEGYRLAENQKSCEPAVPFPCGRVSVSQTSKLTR heavy: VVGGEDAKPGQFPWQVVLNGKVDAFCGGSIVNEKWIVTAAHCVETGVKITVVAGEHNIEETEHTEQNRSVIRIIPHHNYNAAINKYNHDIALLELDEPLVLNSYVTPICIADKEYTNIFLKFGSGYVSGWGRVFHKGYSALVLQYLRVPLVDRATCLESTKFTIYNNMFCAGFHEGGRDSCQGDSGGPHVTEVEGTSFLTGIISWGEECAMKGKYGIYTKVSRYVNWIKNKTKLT	KD-WT/KD-mut	12.8
FIXa variant Y155F/K247N/N249S/N260S (enzyme) light: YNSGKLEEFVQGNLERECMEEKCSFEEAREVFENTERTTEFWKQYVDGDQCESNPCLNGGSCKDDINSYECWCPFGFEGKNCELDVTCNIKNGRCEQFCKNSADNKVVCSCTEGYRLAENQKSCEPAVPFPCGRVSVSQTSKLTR heavy: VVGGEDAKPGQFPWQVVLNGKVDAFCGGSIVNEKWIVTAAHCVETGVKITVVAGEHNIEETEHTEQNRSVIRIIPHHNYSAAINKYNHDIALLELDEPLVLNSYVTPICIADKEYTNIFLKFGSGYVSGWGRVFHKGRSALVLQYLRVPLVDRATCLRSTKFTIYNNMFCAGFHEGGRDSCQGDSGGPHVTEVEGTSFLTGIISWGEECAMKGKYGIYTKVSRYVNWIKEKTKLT	KD-WT/KD-mut	0.6

Here's the next entry for you.
Input FIXa variant D104N/K106S/I251S/R318Y/R338E/E410N (enzyme) light: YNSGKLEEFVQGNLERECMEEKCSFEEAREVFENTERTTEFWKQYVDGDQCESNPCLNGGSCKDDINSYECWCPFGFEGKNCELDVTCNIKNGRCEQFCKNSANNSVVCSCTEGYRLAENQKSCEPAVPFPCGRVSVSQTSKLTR heavy: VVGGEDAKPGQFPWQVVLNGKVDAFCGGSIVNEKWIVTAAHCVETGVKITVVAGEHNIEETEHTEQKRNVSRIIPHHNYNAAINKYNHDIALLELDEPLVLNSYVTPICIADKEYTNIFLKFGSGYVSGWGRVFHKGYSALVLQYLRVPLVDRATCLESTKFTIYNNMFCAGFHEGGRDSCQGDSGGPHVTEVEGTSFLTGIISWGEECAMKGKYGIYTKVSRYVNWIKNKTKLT . Output KD-WT/KD-mut: 7.7

Value source: patent US20210238260A1
